Listed next: entries and their corresponding log10 EC50.
system_name: dopamine D2 receptors (Homo sapiens (Human))
assay_summary: β-arrestin2 recruitment BRET, dopamine D2 receptor functional activity
Type: cell-based
experimental_parameters: HEK-293T; I-1 to 19 n=3, I-20 to 27 single determination; read-out: β-arrestin2 BRET EC50
Please keep in mind that the values are log10 of EC50 expressed in nM.

Some solved entries appear below for comparison.
# compound, readout_value
data = [
    ("Cn1cc2c3c(cccc31)N1CCN(CCCCOc3ccc4ccc(=O)[nH]c4c3)CC1C2 (stereo not shown)", 2.04),
    ("c1cc2c3c(c[nH]c3c1)CC1CN(CCCOc3ccc4c(c3)OCO4)CCN21 (stereo not shown)", 2.17),
    ("Cn1cc2c3c(cccc31)N1CCN(C/C=C/COc3ccc4ccc(=O)[nH]c4c3)CC1C2 (stereo not shown)", 2.47),
    ("O=C1CCc2ccc(OC/C=C/CN3CCN4c5cccc6[nH]cc(c56)CC4C3)cc2N1 (stereo not shown)", 1.99),
    ("O=c1ccc2ccc(OCCCN3CCN4c5cccc6[nH]cc(c56)CC4C3)cc2[nH]1 (stereo not shown)", 2.04),
    ("Cc1noc2cc(OCCCCN3CCN4c5cccc6[nH]cc(c56)CC4C3)ccc12 (stereo not shown)", 1.73),
    ("c1cc2c3c(c[nH]c3c1)CC1CN(CCCCOc3ccc4c(c3)OCC4)CCN21 (stereo not shown)", 1.79),
    ("O=S(=O)(N[C@H]1CC[C@H](CCN2CCN3c4cccc5[nH]cc(c45)CC3C2)CC1)c1ccccc1 (stereo partly shown)", 1.50),
    ("Cc1nc2n(c(=O)c1CCN1CCN3c4cccc5[nH]cc(c45)CC3C1)CCCC2 (stereo not shown)", 2.31),
    ("O=C(N[C@H]1CC[C@H](CCN2CCN3c4cccc5[nH]cc(c45)CC3C2)CC1)N1CCCCC1 (stereo partly shown)", 1.31),
]

*Q* Hi! What's the reported log10 EC50 for CN(C)C(=O)N[C@H]1CC[C@H](CCN2CCN3c4cccc5[nH]cc(c45)C[C@H]3C2)CC1 [(−)-I-10] on dopamine D2 receptors (Homo sapiens (Human))?
*A* 0.44

*Q* Hi! What's the reported log10 EC50 for Cc1nc2cc(OCCCCN3CCN4c5cccc6[nH]cc(c56)CC4C3)ccc2o1 (stereo not shown) on dopamine D2 receptors (Homo sapiens (Human))?
*A* 1.85

*Q* Hi! What's the reported log10 EC50 for O=c1ccc2ccc(OCCCCN3CCN4c5cccc6[nH]cc(c56)CC4C3)cc2[nH]1 (racemic) on dopamine D2 receptors (Homo sapiens (Human))?
*A* 1.69

*Q* Hi! What's the reported log10 EC50 for c1cc2c3c(c[nH]c3c1)CC1CN(CCCCOc3ccc4scnc4c3)CCN21 (stereo not shown) on dopamine D2 receptors (Homo sapiens (Human))?
*A* 1.81

*Q* Hi! What's the reported log10 EC50 for O=C(CCCN1CCN2c3cccc4[nH]cc(c34)CC2C1)c1ccc(F)cc1 (stereo not shown) on dopamine D2 receptors (Homo sapiens (Human))?
*A* 1.02

*Q* Hi! What's the reported log10 EC50 for O=c1ccc2ccc(OC/C=C/CN3CCN4c5cccc6[nH]cc(c56)CC4C3)cc2[nH]1 (stereo not shown) on dopamine D2 receptors (Homo sapiens (Human))?
*A* 1.79

###

assay_summary: Pharmacokinetic properties in C57 male mice, single dose (plasma, LC-MS/MS)
Type: in vivo
experimental_parameters: mouse, plasma, oral administration 5 mg/kg, read-out: Bioavailability F
readout: bioavailability (%)
A number alone suffices; assume %.

*Q* Given CN(C)C(=O)N[C@H]1CC[C@H](CCN2CCN3c4cccc5[nH]cc(c45)C[C@H]3C2)CC1 [(−)-I-10] , state its recorded bioavailability.
*A* 55.9

###

system_name: dopamine D2 receptors (Homo sapiens (Human), UniProt P14416)
Sequence (P14416 whole entry): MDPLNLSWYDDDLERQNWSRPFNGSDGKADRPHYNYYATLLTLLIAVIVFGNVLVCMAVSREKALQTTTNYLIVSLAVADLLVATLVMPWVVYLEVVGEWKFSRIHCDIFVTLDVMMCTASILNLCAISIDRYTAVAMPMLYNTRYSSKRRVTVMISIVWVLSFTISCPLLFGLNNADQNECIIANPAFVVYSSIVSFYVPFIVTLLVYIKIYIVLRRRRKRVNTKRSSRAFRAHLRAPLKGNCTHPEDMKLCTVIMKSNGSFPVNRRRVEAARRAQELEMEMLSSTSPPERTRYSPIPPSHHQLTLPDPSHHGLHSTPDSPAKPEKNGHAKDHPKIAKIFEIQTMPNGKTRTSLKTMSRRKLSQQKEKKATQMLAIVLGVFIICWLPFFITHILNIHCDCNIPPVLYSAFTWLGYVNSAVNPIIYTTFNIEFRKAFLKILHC
assay_summary: β-arrestin2 recruitment BRET, dopamine D2 receptor functional activity
Format: cell-based
experimental_parameters: antagonistic activity; single determination; read-out: β-arrestin2 BRET EC50 (antagonistic activity)
readout: EC50 (nM)
A number alone suffices; assume nM.

*Q* Given Cn1cc2c3c(cccc31)N1CCN(CCCC(O)c3ccc(F)cc3)CC1C2 (stereo not shown) , state its recorded EC50.
*A* 1540

###

Listed next: entries and their corresponding Emax.
system_name: dopamine D2 receptors (Homo sapiens (Human), UniProt P14416)
assay_summary: G protein Gαi1-γ9 dissociation BRET, dopamine D2 receptor functional activity
Assay type: cell-based
experimental_parameters: relative to the endogenous ligand dopamine; read-out: Gai1 BRET Emax % ± SEM
A number alone suffices; assume %.

# molecule, Emax [%]
records = [
    ("O=C(N[C@H]1CC[C@H](CCN2CCN3c4cccc5[nH]cc(c45)CC3C2)CC1)c1ccccc1 (some centres unmarked)", 72),
    ("Cc1noc2cc(OCCCCN3CCN4c5cccc6[nH]cc(c56)CC4C3)ccc12 (centres unmarked)", 83),
    ("O=C(CCCN1CCN2c3cccc4[nH]cc(c34)CC2C1)c1ccc(F)cc1 (centres unmarked)", 38),
    ("Cc1nc2cc(OCCCCN3CCN4c5cccc6[nH]cc(c56)CC4C3)ccc2o1 (centres unmarked)", 80),
    ("O=C1CCc2ccc(OCCCCN3CCN4c5cccc6[nH]cc(c56)CC4C3)cc2N1 (centres unmarked)", 100),
    ("CN(C)C(=O)N[C@H]1CC[C@H](CN2CCN3c4cccc5[nH]cc(c45)CC3C2)CC1 (some centres unmarked)", 84),
    ("O=c1ccc2ccc(OCCCN3CCN4c5cccc6[nH]cc(c56)CC4C3)cc2[nH]1 (centres unmarked)", 94),
    ("O=c1ccc2ccc(OC/C=C/CN3CCN4c5cccc6[nH]cc(c56)CC4C3)cc2[nH]1 (centres unmarked)", 77),
    ("CN(C)C(=O)N[C@H]1CC[C@H](CCN2CCN3c4cccc5[nH]cc(c45)C[C@H]3C2)CC1 [(−)-I-10]", 78),
    ("c1cc2c3c(c[nH]c3c1)CC1CN(CCCCOc3ccc4c(c3)OCC4)CCN21 (centres unmarked)", 86),
]

*Q* Given Cn1cc2c3c(cccc31)N1CCN(CCCCOc3ccc4ccc(=O)[nH]c4c3)CC1C2 (centres unmarked) , state its recorded Emax.
*A* 77

*Q* Given CN(C)C(=O)N[C@H]1CC[C@H](CCN2CCN3c4cccc5c4c(cn5C)CC3C2)CC1 (some centres unmarked) , state its recorded Emax.
*A* 71

*Q* Given Cn1cc2c3c(cccc31)N1CCN(C/C=C/COc3ccc4ccc(=O)[nH]c4c3)CC1C2 (centres unmarked) , state its recorded Emax.
*A* 38

*Q* Given O=C1CCc2ccc(OC/C=C/CN3CCN4c5cccc6[nH]cc(c56)CC4C3)cc2N1 (centres unmarked) , state its recorded Emax.
*A* 74

*Q* Given Cc1nc2n(c(=O)c1CCN1CCN3c4cccc5[nH]cc(c45)CC3C1)CCCC2 (centres unmarked) , state its recorded Emax.
*A* 61

*Q* Given O=c1ccc2ccc(OCCCCN3CCN4c5cccc6[nH]cc(c56)CC4C3)cc2[nH]1 (racemic) [Compound I-2] , state its recorded Emax.
*A* 101

###

assay_summary: Pharmacokinetic properties in C57 male mice, single dose (plasma, LC-MS/MS)
Assay type: in vivo
experimental_parameters: mouse, plasma, oral administration 5 mg/kg, read-out: Terminal elimination half-life t1/2 (converted)
Protocol: 1. Test of the pharmacokinetic properties of compound (−)-I-10 administered to C57 male mice by single intragastric administration, intraperitoneal injection and intravenous injection […] Data acquisition and control system software was Analyst 1.5.1 software (Applied Biosystem). […] Pharmacokinetic parameters were analyzed using WinNonlin Professional v6.3 (Pharsight, USA) using non-compartmental models. […]
readout: half-life (h)
A number alone suffices; assume h.

*Q* Given CN(C)C(=O)N[C@H]1CC[C@H](CCN2CCN3c4cccc5[nH]cc(c45)C[C@H]3C2)CC1 [(−)-I-10] , state its recorded half-life.
*A* 1.15

###

assay_summary: Pharmacokinetic properties in C57 male mice, single dose (plasma, LC-MS/MS)
Assay type: in vivo
experimental_parameters: mouse, plasma, oral administration 5 mg/kg, read-out: Drug peak concentration Cmax
readout: Cmax (ng/mL)
A number alone suffices; assume ng/mL.

*Q* Given CN(C)C(=O)N[C@H]1CC[C@H](CCN2CCN3c4cccc5[nH]cc(c45)C[C@H]3C2)CC1 [(−)-I-10] , state its recorded Cmax.
*A* 558

###

assay_summary: Brain permeability in C57 male mice (plasma and brain tissue concentration)
Format: in vivo
experimental_parameters: mouse, brain/plasma, oral administration 5 mg/kg, read-out: Brain/blood concentration ratio at 2.0 h
readout: Kp at 2 h
Respond with the number and no other words.

*Q* Given CN(C)C(=O)N[C@H]1CC[C@H](CCN2CCN3c4cccc5[nH]cc(c45)C[C@H]3C2)CC1 [(−)-I-10] , state its recorded Kp at 2 h.
*A* 1.78
